- system-name: T1, huROR1-His (human ROR1 ECD AA30-406 with C-terminal His tag, made in house) (human, UniProt Q01973 30-406)
- T1 construct: range 30-406; Expressed in HEK293; also called antigen protein huROR1-His; not shown: C-terminal His tag
- T1 sequence (Q01973 30-406 limits assumed): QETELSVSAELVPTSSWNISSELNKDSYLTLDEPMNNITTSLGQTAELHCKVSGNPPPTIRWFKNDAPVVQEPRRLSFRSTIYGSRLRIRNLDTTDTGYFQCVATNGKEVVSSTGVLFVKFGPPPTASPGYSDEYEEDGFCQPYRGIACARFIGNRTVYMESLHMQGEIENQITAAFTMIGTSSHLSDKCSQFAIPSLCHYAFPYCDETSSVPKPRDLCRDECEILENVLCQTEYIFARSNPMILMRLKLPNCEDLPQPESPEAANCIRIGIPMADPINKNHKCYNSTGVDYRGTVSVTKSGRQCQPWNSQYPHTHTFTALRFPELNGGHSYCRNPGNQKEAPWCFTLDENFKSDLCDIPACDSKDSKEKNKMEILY
- procedure-summary: ELISA, huROR1-His coated plate, goat anti-human Fc-HRP, OD450
Form field: EC50 (one value per entry).

binder: B31-H4L4 (antibody, human IgG1, kappa, V domains shown) VH: EVQLVESGGGLVQPGGSLRLSCAASGFTFSRYAMSWVRQAPGKGLEWVSAISRGGSTYYADSVKGRFTISRDNSKNTLYLQMNSLRAEDTAVYYCASYFGNYDAMDYWGQGTTVTVSS VL: DIQMTQSPSSLSASVGDRVTITCRASQDINNYLSWFQQKPGKAPKSLIYRANRLQSGVPSRFSGSGSGTDFTLTISSLQPEDFATYYCLQFDEFPYTFGGGTKLEIKR
unit-of-measure: ng/mL
EC50: 17.1
--
binder: B31-H4L2 (antibody, human IgG1, kappa, V domains shown) VH: EVQLVESGGGLVQPGGSLRLSCAASGFTFSRYAMSWVRQAPGKGLEWVSAISRGGSTYYADSVKGRFTISRDNSKNTLYLQMNSLRAEDTAVYYCASYFGNYDAMDYWGQGTTVTVSS VL: DIQMTQSPSSLSASVGDRVTITCKASQDINNYVSWFQQKPGKAPKSLIYRANRLVDGVPSRFSGSGSGTDYTFTISSLQPEDFATYYCLQFDEFPYTFGGGTKLEIKR
unit-of-measure: ng/mL
EC50: 8.12
--
binder: B31 (chimeric antibody) (antibody, human IgG1, kappa, V domains shown, ExpiCHO expression) VH: EVMLVESGGGLVKPGGSLKLSCAASGFTFSRYAMSWVRQTPEKRLEWVASISRGGSTYYPDSVKGRFTISRDNARNILYLQMSSLRSEDTAMYYCASYFGNYDAMDYWGQGTSVTVSS VL: DIQMNQSPSSMYASLGERVTITCKASQDINNYVSWFQQKPGKSPKTLIYRANRLVDGVPSRFSGSGSGQDYSFTISSLEYEDMGIYYCLQFDEFPYTFGGGTKLEIKR
unit-of-measure: ng/mL
EC50: 1.63
--
binder: B31-H4L3 (antibody, human IgG1, kappa, V domains shown) VH: EVQLVESGGGLVQPGGSLRLSCAASGFTFSRYAMSWVRQAPGKGLEWVSAISRGGSTYYADSVKGRFTISRDNSKNTLYLQMNSLRAEDTAVYYCASYFGNYDAMDYWGQGTTVTVSS VL: DIQMTQSPSSLSASVGDRVTITCRASQDINNYVSWFQQKPGKAPKSLIYRANRLVSGVPSRFSGSGSGTDFTFTISSLQPEDFATYYCLQFDEFPYTFGGGTKLEIKR
unit-of-measure: ng/mL
EC50: 5.74
